System: P12-Ichikawa
method.notes: cell viability relative to DMSO control; higher = less cytotoxic
assay.setup: HPLM + 10% dialyzed FBS; 48 h; 0.0632 µM
What cell viability was measured for each of the following?
Numbers only, in %.

Would you mind listing cell viability for each of the following compounds?
1. CCCCCCCCCCCC(CC1OC(=O)C1CCCCCC)OC(=O)C(CC(C)C)NC=O (configuration not stated)
2. Cc1ccc(C(C)(O)c2nc3ccccc3s2)c(C)c1 (configuration not stated)
3. CSC1=CC(=CC=C1)NC2=NC3=C(C=N2)/C=C(C(=O)N3C)/C4=C(Cl)C=CC=C4Cl
4. Cc1cc(O)c2c3c4c(cc(O)c13)C(C)(C)C(=O)c1c(O)cc(O)c(c1-4)C2=O
5. COc1ccc(/C=C\c2cc(OC)c(OC)c(OC)c2)cc1O
6. CCNC(=O)C[C@@H]1\N=C(C2=CC=C(Cl)C=C2)/C3=C(C=CC(=C3)OC)[N]4C(=NN=C14)C
7. C[N]1C=NC=C1[C@@](N)(C2=CC=C(Cl)C=C2)C3=CC=C4N(C)C(=O)\C=C(\C5=CC=CC(=C5)Cl)C4=C3

[111, 106, 106, 111, 11.9, 105, 109]

---

System: SEM cells
method.notes: cell viability relative to DMSO control; higher = less cytotoxic
assay.setup: RPMI 5 mM glucose + 10% dialyzed FBS; 48 h; 15.4 µM
What cell viability was measured for each of the following?
Numbers only, in %.

These recorded examples may help you get a feel for the data.
>>> value_measured("CN(N=O)C(=O)N[C@H]1C(O)OC(CO)[C@@H](O)[C@@H]1O (stereo partly drawn)")
32.7
>>> value_measured("O=C(NC1CCOCC1)c1ccc(-c2cc(-c3c[nH]nc3-c3ccccn3)ccn2)cc1")
110
>>> value_measured("C=C(C)[C@@H]1CC[C@]2(C)CC[C@]3(C)[C@H](CC[C@@H]4[C@@]5(C)CC[C@H](O)C(C)(C)[C@@H]5CC[C@]43C)[C@@H]12")
90.5
>>> value_measured("Clc1ccc(C2(c3ccc(-c4cn[nH]c4)cc3)CCNCC2)cc1")
57.1

Would you mind listing cell viability for each of the following compounds?
1. C[C@H]1CN(C[C@@H](C)O1)CC(=O)NC2=CC=C3SC4=C(CC3=C2)C=CC=C4\C5=C\C(=O)\C=C(/O5)N6CCOCC6
2. CN1CCCN(C(=O)c2cccc(-c3ccc(/C=C4/C(=O)Nc5ccc(Cl)cc54)o3)c2)CC1
3. COc1cc2c(N3CCN(C(=O)Nc4ccc(OC(C)C)cc4)CC3)ncnc2cc1OCCCN1CCCCC1
4. CCOC(=O)C/1=C(C)/NC(=S)NC1C2=CC=CC(=C2)O (stereo not drawn)

1. 46.9
2. 5.5
3. 14.1
4. 14.3

---

System: NOMO1
method.notes: AUC of viability dose-response curve (% viability x log10 dose units); higher = less sensitive
assay.setup: RPMI 5 mM glucose + 10% dialyzed FBS; 48 h
experimental.endpoint: AUC of viability dose-response curve

>>> value_measured("CN(C)CCN(C)CCc1ccc(Cl)c(Cl)c1")
473
>>> value_measured("CN1C(=O)\\C(=C/C(=C1/NC2=C(F)C=C(I)C=C2)C(=O)NOCCO)C")
253
>>> value_measured("CCN1CCCC1CNC(=O)c1cc(S(=O)(=O)CC)c(N)cc1OC (stereo not drawn)")
469
>>> value_measured("CCNC(=O)C[C@@H]1\\N=C(C2=CC=C(Cl)C=C2)/C3=C(C=CC(=C3)OC)[N]4C(=NN=C14)C")
388
>>> value_measured("FC(F)(F)c1ccc(Nc2nc3cc(Oc4ccnc(-c5ncc(C(F)(F)F)[nH]5)c4)ccc3[nH]2)cc1")
476

Would you mind listing AUC of viability dose-response curve for each of the following molecules?
1. C=C(C)[C@@H]1CC[C@]2(C)CC[C@]3(C)[C@H](CC[C@@H]4[C@@]5(C)CC[C@H](O)C(C)(C)[C@@H]5CC[C@]43C)[C@@H]12
2. COc1cc(N2CCC(O)CC2)ccc1Nc1cc(Nc2ccccc2[S+](=O)([O-])C(C)C)c2cc[nH]c2n1
3. O=C1CSC(=O)N1C(CCc1ccncc1)COc1ccc(-c2cccc([N+](=O)[O-])c2)cc1 (stereo not drawn)

1: 446; 2: 404; 3: 454
